experimentalSystem: Nuclear receptor ROR-gamma (Mus musculus) (UniProt P51450)
Sequence (P51450 whole entry, looked up): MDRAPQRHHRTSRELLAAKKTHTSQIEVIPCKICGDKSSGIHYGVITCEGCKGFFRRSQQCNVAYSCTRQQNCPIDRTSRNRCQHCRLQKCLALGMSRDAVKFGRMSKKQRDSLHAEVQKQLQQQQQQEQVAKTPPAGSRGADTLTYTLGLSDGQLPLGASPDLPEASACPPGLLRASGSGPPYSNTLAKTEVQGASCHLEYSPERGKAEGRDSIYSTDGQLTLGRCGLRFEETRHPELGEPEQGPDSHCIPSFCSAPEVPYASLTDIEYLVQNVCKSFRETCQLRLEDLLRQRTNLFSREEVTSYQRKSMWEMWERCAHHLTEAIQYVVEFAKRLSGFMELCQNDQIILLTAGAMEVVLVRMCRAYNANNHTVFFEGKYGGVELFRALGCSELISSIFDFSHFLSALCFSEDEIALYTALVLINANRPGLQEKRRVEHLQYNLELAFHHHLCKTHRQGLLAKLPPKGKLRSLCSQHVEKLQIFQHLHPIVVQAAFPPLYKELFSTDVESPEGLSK
test: Concentration response confirmation assay for inhibitors of ROR gamma transcriptional activity
conditions: Drosophila S2 Gal4-RORgamma UAS-luciferase, 20 h; series mostly up to 46.1 µM
Records with an inconclusive call do not appear. The source made the active and inactive calls. The call rests on the fitted dose curve; in most records, active means well fitted inhibition curve with a large enough effect; inconclusive means small, poorly fitted or top-dose-only effect, or effect the other way; inactive means no such curve, though single readings can be large or run the other way.
Pick one and only one: active, inactive

See these solved cases before continuing.
{"molecule": "Fc1cccc2sc(Nc3nnc(-c4ccco4)o3)nc12", "classLabel": "active"}
{"molecule": "CC(C)CC(=O)NS(=O)(=O)c1ccc(N)cc1", "classLabel": "inactive"}
{"molecule": "Cc1ccc2nc(-c3ccc(NC(=O)COC(=O)c4ccc(=O)[nH]c4)cc3)sc2c1", "classLabel": "active"}

Q: Can you look up the reported call for C=C(C)c1cccc(C(C)(C)NC(=O)N2CCN(CC)CC2)c1 for me?
Ans: inactive

Q: Can you look up the reported call for N=C1S/C(=C\c2ccco2)C(=O)N1c1nccs1 for me?
Ans: active

Q: Can you look up the reported call for CCOC(=O)c1sc(NC(=O)c2sc(C)nc2C)nc1C for me?
Ans: inactive

Q: Can you look up the reported call for O=C(/C=C/c1ccc(S(=O)(=O)N2CCOCC2)cc1)NC(=S)Nc1ccc(N2CCOCC2)cc1 for me?
Ans: active

Q: Can you look up the reported call for Cc1cc(C)c2[nH]c(C(=O)Nc3ccc4c(c3)OCO4)cc2c1 for me?
Ans: active

Q: Can you look up the reported call for CC(C)(C)S(=O)(=O)c1cnc2c(-c3ccsc3)cnn2c1N for me?
Ans: active

Q: Can you look up the reported call for CCN(CC)c1ccc2cc(-c3nc4ccccc4[nH]3)c(=O)oc2c1 for me?
Ans: active

Q: Can you look up the reported call for O=[N+]([O-])c1ccccc1/C=C/C=N/n1c(-c2ccc(Cl)cc2)n[nH]c1=S for me?
Ans: inactive

Q: Can you look up the reported call for O=C(NCC1CCCO1)C(C(=O)c1ccccc1)n1ccccc1=O (centres undefined) for me?
Ans: inactive

Q: Can you look up the reported call for Cc1cccc(-c2nc3cc(NC(=O)C4CCCO4)ccc3o2)c1 (centres undefined) for me?
Ans: active

====

experimentalSystem: Nuclear receptor ROR-gamma (Mus musculus) (UniProt P51450)
test: Concentration response confirmation assay for inhibitors of ROR gamma transcriptional activity
conditions: Drosophila S2 Gal4-RORgamma UAS-luciferase, 20 h; series mostly up to 46.1 µM
Inconclusive results are not listed. Active and inactive are the calls of the source. Calls follow the shape of the dose curve; as a rule, active = well fitted inhibition curve with a large enough effect; inconclusive = small, poorly fitted or top-dose-only effect, or effect the other way; inactive = no such curve, though single readings can be large or run the other way.
measuredProperty: Potency

Example entries begin here.
{"molecule": "COc1ccc2nc(NC(=O)c3sc4nc(C)cc(C)c4c3N)sc2c1", "Potency": "19.9 nM (active)"}
{"molecule": "Cc1cc(NCc2ccccn2)n2ncc(-c3ccc(Cl)cc3)c2n1", "Potency": "199 nM (active)"}
{"molecule": "Cc1cc(C)nc(-n2nc(C)cc2NC(=O)c2ccc(F)cc2F)n1", "Potency": "996 nM (active)"}
{"molecule": "CCOc1ncccc1C(=O)OCC(=O)Nc1ccc(-c2nc3ccc(C)cc3s2)cc1", "Potency": "396 nM (active)"}
{"molecule": "COC(=O)c1ccc2nc(Nc3nc4ccc(F)cc4s3)sc2c1", "Potency": "315 nM (active)"}

Please turn your attention to the following entry.
Q: Recorded Potency of Cc1cc(C)nc(-n2nc(C)cc2NC(=O)CNC(C)c2ccccc2)n1 (stereo unspecified) , please.
Ans: 6280 nM (active)
